# test target: Human PDE10A1 (Homo sapiens, UniProt Q9Y233)
# Sequence (Q9Y233 1-779 isoform Q9Y233-1): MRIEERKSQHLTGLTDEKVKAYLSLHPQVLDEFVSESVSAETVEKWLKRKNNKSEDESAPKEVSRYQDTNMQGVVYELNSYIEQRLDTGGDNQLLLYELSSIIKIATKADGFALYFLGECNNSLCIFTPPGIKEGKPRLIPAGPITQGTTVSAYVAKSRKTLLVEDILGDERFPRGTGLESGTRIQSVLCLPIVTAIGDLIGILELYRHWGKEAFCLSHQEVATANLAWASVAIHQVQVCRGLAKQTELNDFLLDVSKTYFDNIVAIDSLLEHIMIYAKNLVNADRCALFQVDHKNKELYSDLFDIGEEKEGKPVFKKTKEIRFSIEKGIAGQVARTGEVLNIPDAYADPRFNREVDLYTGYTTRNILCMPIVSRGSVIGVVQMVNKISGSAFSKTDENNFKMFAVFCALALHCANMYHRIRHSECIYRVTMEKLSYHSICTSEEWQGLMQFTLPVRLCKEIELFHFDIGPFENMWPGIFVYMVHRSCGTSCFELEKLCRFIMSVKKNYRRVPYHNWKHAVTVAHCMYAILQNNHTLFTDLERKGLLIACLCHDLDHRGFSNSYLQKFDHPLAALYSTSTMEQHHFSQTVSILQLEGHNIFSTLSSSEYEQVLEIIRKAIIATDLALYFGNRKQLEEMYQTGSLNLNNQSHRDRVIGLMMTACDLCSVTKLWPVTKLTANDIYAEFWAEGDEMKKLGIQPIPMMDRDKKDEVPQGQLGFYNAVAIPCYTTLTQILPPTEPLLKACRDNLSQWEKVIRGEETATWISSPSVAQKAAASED
This listing pairs compounds with measured IC50.

Past entries and their recorded results:
# compound, IC50
rows = [
    ("c1ccc(-c2ccc(OCc3cn4ccccc4n3)cc2)c(-c2ccncc2)c1 [Example 619]", "≤ 50 nM"),
    ("c1ccc(N2CCOCC2)c(-c2ccc(OCc3ccc4ccccc4n3)cc2)c1 [Example 445]", "> 50 nM"),
    ("Cc1cc(-c2ccccc2-c2ccc(OCc3ccc4ccccc4n3)cc2)ccn1 [Example 1859]", "≤ 50 nM"),
    ("O=C(c1cccc(-c2ccncc2)c1-c1ccc(OCc2ccc3ccccc3n2)cc1)N1CCOCC1 [Example 1864]", "> 50 nM"),
    ("c1ccc(-c2ccc(OCc3ccc4ccccc4n3)cc2)c(-c2ccncc2)c1 [Example 380]", "≤ 50 nM"),
    ("Cc1ccc(COc2ccc(-c3ccccc3-c3ccncc3)cc2)nc1 [Example 501]", "≤ 50 nM"),
    ("N#Cc1cccc(-c2ccc(OCc3ccc4ccccc4n3)cc2)c1-c1ccncc1 [Example 1870]", "> 50 nM"),
    ("N#Cc1cccc(N2CCOCC2)c1-c1ccc(OCc2ccc3ccccc3n2)cc1 [Example 448]", "≤ 50 nM"),
]

Problem: Which IC50 is listed for Cc1cccnc1COc1ccc(-c2ccccc2-c2ccncc2)cc1 [Example 1882] ?
Result: > 50 nM

Where do the numbers come from? From patent US20110224204A1.
